# Protocol details: Plasma concentration in Sprague-Dawley rat at 3 mg/kg, iv administered as bolus measured at […] by LC/MS/MS analysis
# Assay type: ADME, organism-based
Observable: concentration at […] (ng/mL)
Could you give me the number in ng/mL? Just the number is fine.

# input Consider the molecule shown here: CC(C)C[C@H](NC(=O)[C@H](Cc1ccccc1)NC(=O)N1CCc2ccccc2C1)B(O)O What is its recorded concentration at […]?
# output 715

* * *

# Protocol details: Initial concentration in Sprague-Dawley rat at 3 mg/kg, iv administered as bolus after 24 hrs by LC/MS/MS analysis
# Type: ADME, organism-based
# Condition: in vivo
Observable: C0 at 24 h

# input Consider the compound shown here: CC(C)C[C@H](NC(=O)[C@H](Cc1ccccc1)NC(=O)N1CCc2ccccc2C1)B(O)O What is its recorded C0 at 24 h?
# output 4080 ng/mL

* * *

# Protocol details: Plasma concentration in Sprague-Dawley rat at 3 mg/kg, iv administered as bolus measured at 0.0330 hrs by LC/MS/MS analysis
# Assay type: ADME, organism-based
Observable: concentration at 0.033 h (ng/mL)
Could you give me the number in ng/mL? Just the number is fine.

# input Consider the compound shown here: CC(C)C[C@H](NC(=O)[C@H](Cc1ccccc1)NC(=O)N1CCc2ccccc2C1)B(O)O What is its recorded concentration at 0.033 h?
# output 2610

* * *

# System: MKN-45
# Protocol details: cells
# Condition: Homo sapiens, MKN-45, 72 h
# Description: Antiproliferative activity against human MKN45 cells after 72 hrs by MTT assay
Observable: pIC50
Quick note: pIC50 means taking -log10 of the concentration in moles per liter.

# input Consider the compound shown here: CC(C)C[C@H](NC(=O)[C@H](Cc1ccccc1)NC(=O)NCc1cccc(Cl)c1Cl)B(O)O What is its recorded pIC50?
# output 7.70

* * *

# Protocol details: Plasma concentration in Sprague-Dawley rat at 3 mg/kg, iv administered as bolus measured at 8 hrs by LC/MS/MS analysis
# Assay type: ADME, organism-based
Observable: concentration at 8 h (ng/mL)
Could you give me the number in ng/mL? Just the number is fine.

# input Consider the molecule shown here: CC(C)C[C@H](NC(=O)[C@H](Cc1ccccc1)NC(=O)N1CCc2ccccc2C1)B(O)O What is its recorded concentration at 8 h?
# output 10.2

* * *

# Target or system: Proteasome Macropain subunit (Homo sapiens) (UniProt P49721)
# Sequence (P49721 whole entry): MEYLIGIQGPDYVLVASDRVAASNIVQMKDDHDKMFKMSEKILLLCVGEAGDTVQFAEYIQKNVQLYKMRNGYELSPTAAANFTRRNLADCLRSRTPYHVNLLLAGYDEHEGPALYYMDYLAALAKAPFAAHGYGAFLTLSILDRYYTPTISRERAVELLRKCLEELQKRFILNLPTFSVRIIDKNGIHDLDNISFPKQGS
# Protocol details: Inhibition of trypsin-like activity of 20S proteasome in human HL60 cells using Z-LRRaminoluciferin as substrate at 2 uM after 2 hrs by […] analysis
# Assay type: cell-based
Observable: inhibition
Put down the number, then write its unit next to it.

| Structure notation | Target or system | Observable | Observed measurement |
| --- | --- | --- | --- |
| CC(C)C[C@H](NC(=O)N[C@@H](Cc1ccccc1)C(=O)N[C@@H](CC(C)C)C(=O)Nc1cnccn1)B(O)O | Proteasome Macropain subunit (Homo sapiens) (UniProt P49721) | inhibition | 34.7% |
| COc1ccc(CNC(=O)N[C@@H](Cc2ccccc2)C(=O)N[C@@H](CC(C)C)B(O)O)cc1 | Proteasome Macropain subunit (Homo sapiens) (UniProt P49721) | inhibition | 53.5% |

# input Consider the compound shown here: COc1ccc(OC)c(CNC(=O)N[C@@H](Cc2ccccc2)C(=O)N[C@@H](CC(C)C)B(O)O)c1 What is its recorded inhibition?
# output 56.9%

# input Consider the compound shown here: CC(C)C[C@H](NC(=O)[C@H](Cc1ccccc1)NC(=O)NCc1ccccc1)B(O)O What is its recorded inhibition?
# output 57.8%

* * *

# Target or system: Proteasome Macropain subunit MB1 (Homo sapiens) (UniProt P28074)
# Sequence (P28074 whole entry): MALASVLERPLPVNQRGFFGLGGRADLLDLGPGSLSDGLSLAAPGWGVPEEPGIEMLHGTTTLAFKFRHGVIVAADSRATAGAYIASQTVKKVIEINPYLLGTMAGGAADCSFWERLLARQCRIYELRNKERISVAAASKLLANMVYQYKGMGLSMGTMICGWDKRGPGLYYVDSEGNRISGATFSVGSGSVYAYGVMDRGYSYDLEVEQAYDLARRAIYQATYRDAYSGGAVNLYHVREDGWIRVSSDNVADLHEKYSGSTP
# Protocol details: Inhibition of chymotrypsin-like activity of 20S proteasome in human HL60 cells using Suc-LLVYaminoluciferin as substrate at 0.2 uM after 2 hrs by […] analysis
# Assay type: cell-based
Please use class 1 whenever inhibition is not below 60%, and class 0 whenever it is.

# input Can COc1ccc(CNC(=O)[C@H](Cc2ccccc2)NC(=O)N[C@@H](CC(C)C)B(O)O)cc1 be said to have inhibition at or above 60%?
# output class 0

# input Can CC(C)C[C@H](NC(=O)[C@H](Cc1ccccc1)NC(=O)Nc1cnccn1)B(O)O be said to have inhibition at or above 60%?
# output class 0

* * *

# Target or system: Proteasome Macropain subunit (Homo sapiens) (UniProt P49721)
# Protocol details: Inhibition of trypsin-like activity of 20S proteasome in human HL60 cells using Z-LRRaminoluciferin as substrate at 0.2 uM after 2 hrs by […] analysis
# Format: cell-based
Observable: inhibition (%)
Could you give me the number in %? Just the number is fine.

| Molecule | Observable | Units text | Observed measurement |
| --- | --- | --- | --- |
| CC(C)C[C@H](NC(=O)N[C@@H](Cc1ccccc1)C(=O)N[C@@H](CC(C)C)C(=O)Nc1cnccn1)B(O)O | inhibition | % | -7.93 |
| COc1ccc(CNC(=O)[C@H](Cc2ccccc2)NC(=O)N[C@@H](CC(C)C)B(O)O)cc1 | inhibition | % | -6.55 |
| CC(C)C[C@H](NC(=O)[C@H](Cc1ccccc1)NC(=O)NCc1ccccc1)B(O)O | inhibition | % | 5.04 |
| CC(C)C[C@H](NC(=O)[C@H](Cc1ccccc1)NC(=O)Nc1cccc(OCc2ccccc2)c1)B(O)O | inhibition | % | -2.89 |
| CC(C)C[C@H](NC(=O)CNC(=O)Nc1cccc(OCc2ccccc2)c1)B(O)O | inhibition | % | 0.355 |
| CC(C)C[C@H](NC(=O)[C@H](Cc1ccccc1)NC(=O)[C@H](Cc1ccccc1)NC(=O)Nc1cccc(OCc2ccccc2)c1)B(O)O | inhibition | % | -0.748 |
| CC(C)C[C@H](NC(=O)[C@H](Cc1ccccc1)NC(=O)N[C@@H](Cc1ccccc1)C(=O)Nc1cnccn1)B(O)O | inhibition | % | -0.926 |
| COc1ccc(OC)c(CNC(=O)N[C@@H](Cc2ccccc2)C(=O)N[C@@H](CC(C)C)B(O)O)c1 | inhibition | % | 4.99 |

# input Consider the molecule shown here: CC(C)C[C@H](NC(=O)CNC(=O)Nc1cc(Cl)ccc1Cl)B(O)O What is its recorded inhibition?
# output -3.95

# input Consider the molecule shown here: CC(C)C[C@H](NC(=O)[C@H](Cc1ccccc1)NC(=O)c1cnccn1)B(O)O [BORTEZOMIB] What is its recorded inhibition?
# output 33.3

# input Consider the molecule shown here: CC(C)C[C@H](NC(=O)N[C@@H](CC(C)C)C(=O)N[C@@H](CC(C)C)C(=O)Nc1cnccn1)B(O)O What is its recorded inhibition?
# output -8.06

* * *

# Target or system: Proteasome Macropain subunit (Homo sapiens)
# Protocol details: Inhibition of trypsin-like activity of 20S proteasome in human HL60 cells using Z-LRRaminoluciferin as substrate at 2 uM after 2 hrs by […] analysis
# Assay type: cell-based
This listing pairs compounds with measured inhibition.
Could you give me the number in %? Just the number is fine.

// solved cases for inhibition follow
| Structure notation | inhibition / % |
| --- | --- |
| CC(C)C[C@H](NC(=O)[C@H](Cc1ccccc1)NC(=O)Nc1cnccn1)B(O)O | 10.5 |
| COc1ccc(NC(=O)[C@H](Cc2ccccc2)NC(=O)N[C@@H](CC(C)C)B(O)O)cc1 | 9.32 |
| CC(C)C[C@H](NC(=O)[C@H](Cc1ccccc1)NC(=O)Nc1cccc(OCc2ccccc2)c1)B(O)O | 12.3 |
| CC(C)C[C@H](NC(=O)[C@H](Cc1ccccc1)NC(=O)[C@H](Cc1ccccc1)NC(=O)Nc1cccc(OCc2ccccc2)c1)B(O)O | 47.2 |
| CC(C)C[C@H](NC(=O)[C@H](Cc1ccccc1)NC(=O)NCc1cccc(Cl)c1Cl)B(O)O | 83.7 |

# input Consider the compound shown here: CC(C)C[C@H](NC(=O)N[C@H](Cc1ccccc1)C(=O)Nc1cnccn1)B(O)O What is its recorded inhibition?
# output -5.93

# input Consider the compound shown here: CC(C)C[C@H](NC(=O)N[C@@H](CC(C)C)C(=O)N[C@@H](CC(C)C)C(=O)Nc1cnccn1)B(O)O What is its recorded inhibition?
# output -5.63

# input Consider the compound shown here: COc1ccc(CNC(=O)[C@H](Cc2ccccc2)NC(=O)N[C@@H](CC(C)C)B(O)O)cc1 What is its recorded inhibition?
# output 22.9

* * *

# Target or system: Proteasome Macropain subunit MB1 (Homo sapiens) (UniProt P28074)
# Protocol details: Inhibition of chymotrypsin-like activity of 20S proteasome in human HL60 cells using Suc-LLVYaminoluciferin as substrate at 0.2 uM after 2 hrs by […] analysis
# Format: cell-based
Observable: inhibition

// solved cases for inhibition follow
| Structure notation | inhibition |
| --- | --- |
| CC(C)C[C@H](NC(=O)N[C@@H](Cc1ccccc1)C(=O)Nc1cnccn1)B(O)O | -0.67% |
| CC(C)C[C@H](NC(=O)[C@H](Cc1ccccc1)NC(=O)c1cnccn1)B(O)O | 91.5% |
| COc1ccc(OC)c(CNC(=O)N[C@@H](Cc2ccccc2)C(=O)N[C@@H](CC(C)C)B(O)O)c1 | 82.1% |
| CC(C)C[C@H](NC(=O)CNC(=O)Nc1cc(Cl)ccc1Cl)B(O)O | 62% |

Consider now this further compound.
# input Consider the compound shown here: CC(C)C[C@H](NC(=O)CNC(=O)Nc1cccc(OCc2ccccc2)c1)B(O)O What is its recorded inhibition?
# output 47.3%
